target: KRas G12V (Homo sapiens, UniProt P01116, G12V); assay: biochemical;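 further: KRas binding measured by TR-FRET displacement at room temperature, IC50 fitted from percent of control values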
Sequence (P01116 1-169 isoform P01116-2 G12V): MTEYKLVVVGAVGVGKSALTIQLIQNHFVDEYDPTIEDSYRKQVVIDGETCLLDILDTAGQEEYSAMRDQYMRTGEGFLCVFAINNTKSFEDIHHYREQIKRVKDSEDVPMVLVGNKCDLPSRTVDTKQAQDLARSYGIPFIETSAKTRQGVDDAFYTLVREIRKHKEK
Quick reference for pIC50 among some molecules
Answer as the number alone; pIC50 is minus log10 of concentration in mol/L.

O=C1CCC2(CCCN(c3nc(OCC45CCCN4CCC5)nc4c(F)c(-c5cccc6cccc(F)c56)ncc34)C2)C1 (stereo not drawn) [Example 46] ... 4.62

Switching to the query record.
Input line: # get_value(readout='pIC50', item= CCc1c(F)ccc2cc(O)cc(-c3ncc4c(N5CC[C@H](C)[C@@H](O)C5)nc(OC[C@@]56CCCN5C[C@H](F)C6)nc4c3F)c12 [Example 188] )
Output line: 7.72
